Data credit: ChEMBL document CHEMBL3745650

Entries and their measured inhibition at 250 µM follow.
test: Antiinflammatory activity in PMA-differentiated human U937 cells assessed as inhibition of LPS-stimulated IL-6 secretion at 250 uM preincubated for 2 hrs followed by LPS-stimulation measured after 24 hrs by ELISA relative to control; type: functional; settings: U-937
Output spec: scalar in %, unitless text.

Worked set:
Item under review: COc1cc(C(O)C(=O)O)ccc1O (stereo unspecified) . Reported inhibition at 250 µM? 0

Next up: COc1cc(CC(=O)O)ccc1O [HOMOVANILLIC ACID] 0

Okay, and CCOC(=O)C(c1ccc(O)c(OC)c1)C(c1ccc(O)c(OC)c1)c1ccc(O)c(OC)c1 (stereo unspecified) ? 99.8

***
What does the record list as inhibition at 250 µM for CCOC(=O)Cc1ccc(O)c(OC)c1 ? 0

Record: CCOC(=O)C(O)c1ccc(O)c(OC)c1 (stereo unspecified) 0

Lookup COc1cc(Cc2ccc(O)c(OC)c2)ccc1O 62.3
